system: Mycobacteroides chelonae; test: Antimicrobial activity against Mycobacterium chelonae 9917 by resazurine microtiter assay; format: functional
Item-by-item account of MIC
Provide only the numeric value, understood in µg/mL.

smiles_structure=NC[C@H]1O[C@H](O[C@H]2[C@H](O)[C@@H](O[C@H]3O[C@H](CO)[C@@H](O)[C@H](N)[C@H]3O)[C@H](N)C[C@@H]2N)[C@H](O)[C@@H](O)[C@@H]1O recorded_number=10
smiles_structure=CC(=O)NC[C@H]1CN(c2ccc(N3CCOCC3)c(F)c2)C(=O)O1 recorded_number=100
smiles_structure=CCn1cc(C(=O)O)c(=O)c2cc(F)c(N3CCNCC3)cc21 recorded_number=5
smiles_structure=O=C(O)c1cn(C2CC2)c2cc(N3CCNCC3)c(F)cc2c1=O recorded_number=5

Task item: Dear colleague, I am looking for the recorded MIC of the following compound: CC[C@H]1OC(=O)[C@H](C)[C@@H](O[C@H]2C[C@@](C)(OC)[C@@H](O)[C@H](C)O2)[C@H](C)[C@@H](O[C@@H]2O[C@H](C)C[C@H](N(C)C)[C@H]2O)[C@](C)(O)C[C@@H](C)CN(C)[C@H](C)[C@@H](O)[C@]1(C)O
Reply: 500

Where these numbers come from: ChEMBL document CHEMBL1649207
